Data credit: PubChem BioAssay (NCI)

Tested on: HOP-92 NSCLC
assay explanation: NCI tumour cell line growth inhibition, 48 h
Assignment: determine reported TGI for the given compounds.

(Q) Need TGI of O=C(CCc1nnc2s/c(=C\c3ccccc3Cl)c(=O)n12)Nc1cc(Cl)ccc1Cl , thanks.
(A) > 100 µM

(Q) Need TGI of O=S(=O)(O)c1ccc2c(N=Nc3ccc(Cl)cc3)c(O)ccc2c1 , thanks.
(A) > 100 µM

(Q) Need TGI of O=C(Nc1nnc(-c2c(Cl)c(Cl)c(Cl)c(Cl)c2-c2nc3cc(C(=O)c4ccccc4)ccc3[nH]2)o1)c1ccc(Cl)cc1 , thanks.
(A) > 100 µM

(Q) Need TGI of CC(C)/C(=N\[N+](C)(C)C)c1ccccc1 , thanks.
(A) > 100 µM

(Q) Need TGI of CNC(=O)OC(COC)CN1CCN(c2ccccc2C)CC1 (stereo unspecified) , thanks.
(A) > 10 µM

(Q) Need TGI of Cc1ccc(NC(=O)/C(=N/N(C)C)C(C2OC(=O)c3ccccc32)[N+](=O)[O-])cc1 (stereo unspecified) , thanks.
(A) > 100 µM

(Q) Need TGI of NC(=O)c1c(NC=O)ncn1C1OCC(O)C(O)C1O (stereo unspecified) , thanks.
(A) > 100 µM

(Q) Need TGI of Cc1ccc(C)c(NC(=O)CC2SC(=Nc3ccccc3Cl)NC2=O)c1 (stereo unspecified) , thanks.
(A) > 100 µM

(Q) Need TGI of COc1c2c(cc3c1C1(O)Cc4ccc5c(c4C[N+]1(C)CC3)OCO5)OCO2 (stereo unspecified) , thanks.
(A) > 100 µM

(Q) Need TGI of CCN1C[C@]2(COC)[C@H](O)C[C@H](OC)[C@]34C1[C@H]([C@H](OC)[C@H]23)[C@]1(OC(C)=O)[C@H]2[C@@H](OC(=O)c3ccccc3)[C@](O)(C[C@H]24)[C@@H](OC)[C@@H]1O , thanks.
(A) > 100 µM

(Q) Need TGI of N#Cc1c(N)nc(NCc2ccccc2)c(C#N)c1-c1ccc(Cl)cc1Cl , thanks.
(A) > 100 µM

(Q) Need TGI of O=C(NCCNc1nccc(-c2c(-c3cccc(O)c3)nc3sccn23)n1)c1ccccc1 , thanks.
(A) 33.2 µM

(Q) Need TGI of Cc1ccc2oc3c(c(Br)c(Br)n3C)c(=O)c2c1 , thanks.
(A) 38.1 µM

(Q) Need TGI of CCOC(=O)CN1CC(C2=C(O)CN(CC(=O)OCC)C2=O)=CC1=O , thanks.
(A) > 100 µM

(Q) Need TGI of COc1ccc(/C=C\c2cc(OC)c(OC)c(OC)c2)cc1OCC(=O)Nc1ccc2nc(C)sc2c1 , thanks.
(A) 7.62 µM

(Q) Need TGI of COc1ccc2nc3n(c2c1)C(=O)c1ccccc1-3 , thanks.
(A) > 100 µM

(Q) Need TGI of C[C@@H]1COCCN1c1cc(C2([S@@](C)(=N)=O)CC2)nc(-c2ccnc3[nH]ccc23)n1 , thanks.
(A) 15.4 µM

(Q) Need TGI of Cc1ccc(NCCN(C)C)c2c(=O)c3ccccc3sc12 , thanks.
(A) 4.41 µM

(Q) Need TGI of CC(CN(C)C)C(=O)c1ccccc1 (stereo unspecified) , thanks.
(A) 6.87 µM

(Q) Need TGI of COc1cc(NCCN=C(N)NC(N)=NC(C)C)c2ncccc2c1 , thanks.
(A) 31.6 µM

(Q) Need TGI of Nc1nc(N)c2cc(Sc3cccc(C(F)(F)F)c3)ccc2n1 , thanks.
(A) 9.54 µM
